Target: T1, human C1s (human, UniProt P09871 16-688)
T1 construct: also called hC1s; serum-derived human C1s (CompTech)
T1 sequence: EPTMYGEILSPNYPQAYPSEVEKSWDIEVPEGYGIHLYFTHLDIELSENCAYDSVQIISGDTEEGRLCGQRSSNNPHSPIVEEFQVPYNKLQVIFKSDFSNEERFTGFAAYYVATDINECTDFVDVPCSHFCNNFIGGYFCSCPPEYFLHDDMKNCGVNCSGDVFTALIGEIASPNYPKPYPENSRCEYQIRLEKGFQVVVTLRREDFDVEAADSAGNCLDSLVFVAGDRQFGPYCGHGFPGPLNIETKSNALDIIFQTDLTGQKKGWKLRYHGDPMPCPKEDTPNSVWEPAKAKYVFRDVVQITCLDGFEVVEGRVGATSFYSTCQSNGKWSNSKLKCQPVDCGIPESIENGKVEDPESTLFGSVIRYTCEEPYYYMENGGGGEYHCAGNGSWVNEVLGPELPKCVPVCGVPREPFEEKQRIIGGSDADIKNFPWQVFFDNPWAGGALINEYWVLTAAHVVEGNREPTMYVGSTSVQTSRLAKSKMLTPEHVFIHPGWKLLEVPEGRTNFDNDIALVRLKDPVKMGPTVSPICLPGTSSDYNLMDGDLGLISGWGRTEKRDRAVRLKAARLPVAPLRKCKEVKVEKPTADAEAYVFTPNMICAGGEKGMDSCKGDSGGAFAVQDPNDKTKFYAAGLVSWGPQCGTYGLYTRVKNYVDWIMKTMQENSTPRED
Assay: SPR, Ab captured; pH 5.8, 1.2 mM Ca
The binders listed here are annotated with their kon.
Write the number in M⁻¹ s⁻¹ without appending the unit.

Example results:
C1_IPN92H0026-SG4GK/IPN93L0029-SK1 (antibody, human IgG4 S228P, kappa, name in Kabat numbering, V domains shown, also called IPN92H0026/IPN93L0029) VH: EVMLVESGGGLVKPGGSLRLSCAASGFTFSNYAMSWVRQAPGKGLEWVATISSGGSHTYYLDSVKHRFTISRDNSKDTLYLQMNSLRAEDTALYYCARLFTGYAMDYWGQGTLVTVSS VL: QIVLTQSPATLSLSPGERATLSCTASSSVSSSYLHWYQQKPGKAPKLWIYSTSNLASGVPSRFSGSGSGTDYTLTISSLQPEDFATYYCHQYHRLHPITFGQGTKLEIKR: 602000
C1_IPN92H0038-SG4GK/IPN93L0031-SK1 (antibody, human IgG4 S228P, kappa, name in Kabat numbering, V domains shown, also called IPN92H0038/IPN93L0031) VH: EVMLVESGGGLVKPGGSLRLSCAASGFTFSNYAMSWVRQAPGKGLEWVATISSGGSHTYYLDSVKHRFTISRDNSKDTLYLQMNSLRAEDTALYYCARLFTGHAMDYWGQGTLVTVSS VL: QIVLTQSPATLSLSPGERATLSCTASSSVSSSYLHWYQQKPGKAPKLWIYSTSNLASGVPSRFSGSGSGTDYTLTISSLQPEDFATYYCHQYHRHHPITFGQGTKLEIKR: 1.18e+06
C1_IPN92H0026-SG4GK/IPN93L0031-SK1 (antibody, human IgG4 S228P, kappa, name in Kabat numbering, V domains shown, also called IPN92H0026/IPN93L0031) VH: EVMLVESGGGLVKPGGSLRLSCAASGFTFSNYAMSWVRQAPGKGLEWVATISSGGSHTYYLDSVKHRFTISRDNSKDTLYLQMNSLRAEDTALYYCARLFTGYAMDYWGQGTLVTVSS VL: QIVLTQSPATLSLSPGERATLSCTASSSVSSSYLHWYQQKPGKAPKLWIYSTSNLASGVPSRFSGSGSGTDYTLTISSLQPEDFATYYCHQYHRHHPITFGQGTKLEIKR: 4140
C1_IPN92H0026-SG4GK/IPN93L0023-SK1 (antibody, human IgG4 S228P, kappa, name in Kabat numbering, V domains shown, also called IPN92H0026/IPN93L0023) VH: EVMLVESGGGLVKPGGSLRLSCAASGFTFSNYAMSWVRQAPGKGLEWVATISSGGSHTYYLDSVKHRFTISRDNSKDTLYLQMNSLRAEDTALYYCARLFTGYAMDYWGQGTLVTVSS VL: QIVLTQSPATLSLSPGERATLSCTASSSVSSSYLHWYQQKPGKAPKLWIYSTSNLASGVPSRFSGSGSGTDYTLTISSLQPEDFATYYCHQYYRHPPITFGQGTKLEIKR: 813000

Exam item: Suppose we examine the binder C1_IPN92H0038-SG4GK/IPN93L0030-SK1 (antibody, human IgG4 S228P, kappa, name in Kabat numbering, V domains shown, also called IPN92H0038/IPN93L0030) VH: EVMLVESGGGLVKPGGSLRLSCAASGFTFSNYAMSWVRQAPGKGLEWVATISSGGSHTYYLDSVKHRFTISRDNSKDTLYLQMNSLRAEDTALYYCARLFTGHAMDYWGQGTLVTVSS VL: QIVLTQSPATLSLSPGERATLSCTASSSVSSSYLHWYQQKPGKAPKLWIYSTSNLASGVPSRFSGSGSGTDYTLTISSLQPEDFATYYCHQYYRHHPITFGQGTKLEIKR ; what kon value has been reported?
Marked response: 241000
